Settings: in methanol, 308.15 K

{"columns": ["SMILES STRUCTURE", "solubility (mole fraction)"],
 "data": [
  ["CNC[C@H](O)c1cccc(O)c1.Cl", 0.136]
]}

* * *

Settings: in 2-ethoxyethanol, 283.15 K
QUANTITY: solubility (mole fraction)

{"columns": ["SMILES STRUCTURE", "QUANTITATIVE READOUT"],
 "data": [
  ["CNC[C@H](O)c1cccc(O)c1.Cl", 0.0305]
]}

* * *

Details: in ethanol, 288.15 K
QUANTITY: solubility (mole fraction)

{"columns": ["SMILES STRUCTURE", "QUANTITATIVE READOUT"],
 "data": [
  ["CNC[C@H](O)c1cccc(O)c1.Cl", 0.0195]
]}
